# assayed.system: T1, human CD70 expressed on the cell surface of tumor cell lines (human, UniProt P32970 1-193)
# T1 construct: whole, on cells
# T1 sequence (looked up): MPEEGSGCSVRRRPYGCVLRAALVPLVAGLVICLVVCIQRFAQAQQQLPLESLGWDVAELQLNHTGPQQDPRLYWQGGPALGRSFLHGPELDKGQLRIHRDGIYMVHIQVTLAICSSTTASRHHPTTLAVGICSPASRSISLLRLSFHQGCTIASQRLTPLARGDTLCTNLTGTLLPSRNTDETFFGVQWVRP
# assay.notes: flow cytometry on Caki-1 cells, PE anti-human Fc, MFI; same fit as Table 6, which prints it in nM
Give measured EC50 for each item. Keep answers brief.

binder	EC50
69A7 (parent antibody), full IgG (antibody, V domains shown, also called parent antibody 69A7) VH: QVQLQESGPGLVKPSETLSLTCTVSGGSVSSDYYYWSWIRQPPGKGLEWLGYIYYSGSTNYNPSLKSRVTISVDTSKNQFSLKLRSVTTADTAVYYCARGDGDYGGNCFDYWGQGTLVTVSS VL: EIVLTQSPATLSLSPGERATLSCRASQSVSSYLAWYQQKPGQAPRLLIFDASNRATGIPARFSGSGSGTDFTLTISSLEPEDFAVYYCQQRSNWPLTFGGGTKVEIK	1.48 µg/mL
2A4P0L1, full IgG (antibody, V domains shown) VH: QVQLQESGPGLVKPSETLSLTCTVSGGSVSSDYYYWSWIRQPPGKGLEWLGYIYYSGSTNYNPSLKSRVTISVDTSKNQFSLKLRSVTTADTAVYYCARGDGDYGGNVFPYWGQGTLVTVSS VL: EIVLTQSPATLSLSPGERATLSCRASQSVSSYLAWYQQKPGQAPRLLIFDASNRATGIPARFSGSGSGTDFTLTISSLEPEDFAVYYCQQRLKFPLTFGGGTKVEIK	0.816 µg/mL
2D2, full IgG (antibody, V domains shown) VH: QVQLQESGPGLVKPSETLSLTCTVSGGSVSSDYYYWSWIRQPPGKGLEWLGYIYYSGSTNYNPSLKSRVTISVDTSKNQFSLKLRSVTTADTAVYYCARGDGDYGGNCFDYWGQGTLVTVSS VL: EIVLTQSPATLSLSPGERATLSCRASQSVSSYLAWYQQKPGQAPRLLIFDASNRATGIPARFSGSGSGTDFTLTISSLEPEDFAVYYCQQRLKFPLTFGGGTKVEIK	0.896 µg/mL

The following binders each have a reported value; give each one's EC50.
1. 1H8, full IgG (antibody, V domains shown) VH: QVQLQESGPGLVKPSETLSLTCTVSGGSVSSDYYYWSWIRQPPGKGLEWLGYIYYSGSTNYNPSLKSRVTISVDTSKNQFSLKLRSVTTADTAVYYCARGDGDFMGVCFDYWGQGTLVTVSS VL: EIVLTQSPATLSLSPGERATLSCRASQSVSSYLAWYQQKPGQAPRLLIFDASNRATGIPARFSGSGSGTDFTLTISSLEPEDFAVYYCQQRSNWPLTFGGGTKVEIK
2. 2E7, full IgG (antibody, V domains shown) VH: QVQLQESGPGLVKPSETLSLTCTVSGGSVSSDYYYWSWIRQPPGKGLEWLGYIYYSGSTNYNPSLKSRVTISVDTSKNQFSLKLRSVTTADTAVYYCARGDGDFLGVCFDYWGQGTLVTVSS VL: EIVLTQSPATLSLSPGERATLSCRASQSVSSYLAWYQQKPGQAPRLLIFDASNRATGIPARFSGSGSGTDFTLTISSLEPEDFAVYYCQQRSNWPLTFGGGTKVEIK

["0.847 µg/mL", "0.421 µg/mL"]
